- Test system: Klebsiella pneumoniae
- experimental details: Antibacterial activity against Klebsiella pneumoniae ATCC 43816 after 24 hrs by microtiter plate method
- Type: functional
- conditions: ATCC 43816, 24 h
Documented MIC across a set of compounds
Kindly answer with a numeric value in µg/mL, unit omitted.

// below: answered compounds
{"smiles data": "O=Cc1cn(-c2nc(-c3cc4cc(Cl)ccc4oc3=O)cs2)nc1-c1ccc(Cl)cc1", "number": 117}
{"smiles data": "O=Cc1cn(-c2nc(-c3cc4cc(Cl)cc(Cl)c4oc3=O)cs2)nc1-c1ccccc1", "number": 118}
{"smiles data": "O=Cc1cn(-c2nc(-c3cc4cc(Cl)ccc4oc3=O)cs2)nc1-c1ccccc1", "number": 129}
{"smiles data": "Cc1ccc(-c2nn(-c3nc(-c4cc5cc(Cl)cc(Cl)c5oc4=O)cs3)cc2C=O)cc1", "number": 101}
{"smiles data": "O=Cc1cn(-c2nc(-c3cc4cc(Br)ccc4oc3=O)cs2)nc1-c1ccccc1", "number": 117}
{"smiles data": "O=Cc1cn(-c2nc(-c3cc4cc(Cl)cc(Cl)c4oc3=O)cs2)nc1-c1ccc(Cl)cc1", "number": 105}
{"smiles data": "Cc1ccc(-c2nn(-c3nc(-c4cc5ccccc5oc4=O)cs3)cc2C=O)cc1", "number": 150}
{"smiles data": "O=Cc1cn(-c2nc(-c3cc4ccccc4oc3=O)cs2)nc1-c1ccccc1", "number": 150}
{"smiles data": "COc1cccc2cc(-c3csc(-n4cc(C=O)c(-c5ccc(C)cc5)n4)n3)c(=O)oc12", "number": 150}
{"smiles data": "Cc1ccc(-c2nn(-c3nc(-c4cc5cc(Br)cc(Br)c5oc4=O)cs3)cc2C=O)cc1", "number": 79.1}

# value lookup — system Klebsiella pneumoniae, readout MIC, item "O=Cc1cn(-c2nc(-c3cc4cc(Br)cc(Br)c4oc3=O)cs2)nc1-c1ccccc1"
119

Try this compound next: "O=Cc1cn(-c2nc(-c3cc4cc(Br)ccc4oc3=O)cs2)nc1-c1ccc(Cl)cc1"
115

Try this compound next: "O=Cc1cn(-c2nc(-c3cc4c(ccc5ccccc54)oc3=O)cs2)nc1-c1ccccc1"
150

Try this compound next: "COc1cccc2cc(-c3csc(-n4cc(C=O)c(-c5ccc(Cl)cc5)n4)n3)c(=O)oc12"
129

Try this compound next: "Cc1ccc(-c2nn(-c3nc(-c4cc5cc(Br)ccc5oc4=O)cs3)cc2C=O)cc1"
124

---

- Tested on: Staphylococcus aureus
- experimental details: Antibacterial activity against methicillin-resistant Staphylococcus aureus NCTC 13616 assessed as growth inhibition at 100 ug/ml after 24 hrs by agar well diffusion method
- Format: functional, organism-based
The source made the active and inactive calls. The calls are words filed in the database; no cut-off is given here.
# valid calls are active, inactive; nothing else

{"smiles data": "O=Cc1cn(-c2nc(-c3cc4cc(Br)ccc4oc3=O)cs2)nc1-c1ccc(Cl)cc1", "assigned class": "active"}
{"smiles data": "O=Cc1cn(-c2nc(-c3cc4cc(Cl)cc(Cl)c4oc3=O)cs2)nc1-c1ccccc1", "assigned class": "active"}
{"smiles data": "Cc1ccc(-c2nn(-c3nc(-c4cc5cc(Cl)cc(Cl)c5oc4=O)cs3)cc2C=O)cc1", "assigned class": "active"}
{"smiles data": "O=Cc1cn(-c2nc(-c3cc4ccccc4oc3=O)cs2)nc1-c1ccccc1", "assigned class": "inactive"}

Next molecule, please.
Recorded test call requested for "O=Cc1cn(-c2nc(-c3cc4cc(Cl)ccc4oc3=O)cs2)nc1-c1ccc(Cl)cc1"
active

---

- System: HeLa
- experimental details: Anticancer activity against human HeLa cells assessed as cell viability after 48 hrs by MTT assay
- Format: functional, cell-based
measurement kind: pIC50
Entry type: numeric. Quantity: pIC50, the -log10 of concentration in molar units.

{"molecule": "O=Cc1cn(-c2nc(-c3cc4cc(Cl)ccc4oc3=O)cs2)nc1-c1ccccc1", "pIC50": 4.89}
{"molecule": "O=Cc1cn(-c2nc(-c3cc4cc(Br)ccc4oc3=O)cs2)nc1-c1ccccc1", "pIC50": 4.96}
{"molecule": "Cc1ccc(-c2nn(-c3nc(-c4cc5ccccc5oc4=O)cs3)cc2C=O)cc1", "pIC50": 4.43}

Item under review: "COc1cccc2cc(-c3csc(-n4cc(C=O)c(-c5ccc(C)cc5)n4)n3)c(=O)oc12" . Reported pIC50?
4.55

Try this molecule next: "O=Cc1cn(-c2nc(-c3cc4cc(Br)ccc4oc3=O)cs2)nc1-c1ccc(Cl)cc1"
5.02

Try this molecule next: COc1cccc2c1C(=O)c1c(O)c3c(c(O)c1C2=O)C[C@@](O)(C(=O)CO)C[C@@H]3O[C@H]1C[C@H](N)[C@H](O)[C@H](C)O1 [DOXORUBICIN]
5.41

Try this molecule next: "O=Cc1cn(-c2nc(-c3cc4c(ccc5ccccc54)oc3=O)cs2)nc1-c1ccccc1"
4.88

---

- Tested on: HeLa
- experimental details: Anticancer activity against human HeLa cells assessed as cell viability after 48 hrs by MTT assay
- Format: functional, cell-based
measurement kind: pIC50
Entry type: numeric. Quantity: pIC50, the -log10 of concentration in molar units.

{"smiles data": "Cc1ccc(-c2nn(-c3nc(-c4cc5cc(Br)ccc5oc4=O)cs3)cc2C=O)cc1", "pIC50": 4.85}
{"smiles data": "Cc1ccc(-c2nn(-c3nc(-c4cc5cc(Br)cc(Br)c5oc4=O)cs3)cc2C=O)cc1", "pIC50": 5.20}
{"smiles data": "COc1cccc2cc(-c3csc(-n4cc(C=O)c(-c5ccc(Cl)cc5)n4)n3)c(=O)oc12", "pIC50": 4.38}

Item under review: "Cc1ccc(-c2nn(-c3nc(-c4cc5cc(Cl)cc(Cl)c5oc4=O)cs3)cc2C=O)cc1" . Reported pIC50?
5.24

Try this compound next: "O=Cc1cn(-c2nc(-c3cc4cc(Cl)ccc4oc3=O)cs2)nc1-c1ccc(Cl)cc1"
5.02

---

- Test system: Staphylococcus aureus
- experimental details: Antibacterial activity against methicillin-resistant Staphylococcus aureus NCTC 13616 after 24 hrs by microtiter plate method
- Assay type: functional
- conditions: NCTC 13616, 24 h
measurement kind: log10 of MIC (log10 of the value in µg/mL)
Heads up, the numbers here are log10 of MIC in µg/mL units.

{"smiles data": "Cc1ccc(-c2nn(-c3nc(-c4cc5cc(Br)cc(Br)c5oc4=O)cs3)cc2C=O)cc1", "study system": "Staphylococcus aureus", "number": 2.03}
{"smiles data": "O=Cc1cn(-c2nc(-c3cc4c(ccc5ccccc54)oc3=O)cs2)nc1-c1ccccc1", "study system": "Staphylococcus aureus", "number": 2.13}
{"smiles data": "COc1cccc2cc(-c3csc(-n4cc(C=O)c(-c5ccc(Cl)cc5)n4)n3)c(=O)oc12", "study system": "Staphylococcus aureus", "number": 2.14}

Item under review: "O=Cc1cn(-c2nc(-c3cc4cc(Cl)cc(Cl)c4oc3=O)cs2)nc1-c1ccc(Cl)cc1" . Reported log10 of MIC?
2.05

Try this molecule next: "COc1cccc2cc(-c3csc(-n4cc(C=O)c(-c5ccc(C)cc5)n4)n3)c(=O)oc12"
2.18

Try this molecule next: "O=Cc1cn(-c2nc(-c3cc4cc(Cl)ccc4oc3=O)cs2)nc1-c1ccc(Cl)cc1"
2.13

Try this molecule next: "Cc1ccc(-c2nn(-c3nc(-c4cc5ccccc5oc4=O)cs3)cc2C=O)cc1"
2.18

Try this molecule next: "O=Cc1cn(-c2nc(-c3cc4cc(Br)ccc4oc3=O)cs2)nc1-c1ccc(Cl)cc1"
2.09

---

- Tested on: Staphylococcus aureus
- experimental details: Bactericidal activity against methicillin-resistant Staphylococcus aureus NCTC 13616 after 24 hrs
- Type: functional
- conditions: NCTC 13616, 24 h, read-out: MBC99.9
Documented MBC across a set of compounds
Kindly answer with a numeric value in µg/mL, unit omitted.

{"smiles data": "Cc1ccc(-c2nn(-c3nc(-c4cc5cc(Br)cc(Br)c5oc4=O)cs3)cc2C=O)cc1", "MBC, µg/mL": 175}
{"smiles data": "O=Cc1cn(-c2nc(-c3cc4ccccc4oc3=O)cs2)nc1-c1ccccc1", "MBC, µg/mL": 300}
{"smiles data": "COc1cccc2cc(-c3csc(-n4cc(C=O)c(-c5ccc(C)cc5)n4)n3)c(=O)oc12", "MBC, µg/mL": 300}
{"smiles data": "Cc1ccc(-c2nn(-c3nc(-c4cc5ccccc5oc4=O)cs3)cc2C=O)cc1", "MBC, µg/mL": 300}
{"smiles data": "O=Cc1cn(-c2nc(-c3cc4cc(Cl)ccc4oc3=O)cs2)nc1-c1ccc(Cl)cc1", "MBC, µg/mL": 265}

Item under review: "O=Cc1cn(-c2nc(-c3cc4cc(Cl)cc(Cl)c4oc3=O)cs2)nc1-c1ccc(Cl)cc1" . Reported MBC?
225

Try this compound next: "O=Cc1cn(-c2nc(-c3cc4cc(Cl)cc(Cl)c4oc3=O)cs2)nc1-c1ccccc1"
175
